system: Retinoic acid receptor RXR-alpha (Homo sapiens)
measurementNotes: qHTS assay to identify small molecule agonists of the RXR signaling pathway (AID 1159527); also: nearly all actives have a fitted effect of over 35% in size
experimentalSetup: HEK293T RXRa-UAS-bla, beta-lactamase ratio, 16 h; series mostly up to 76.8 µM
Records with an inconclusive call do not appear. Active and inactive are the calls of the source. Calls follow the shape of the full dose curve.
observationType: activation

>>> reported("CCCCCOC(=O)c1ccccc1C(=O)OCCCCC")
"inactive"
>>> reported("[N-]=[N+]=[N-]")
"inactive"
>>> reported("Clc1ccc(Cl)cc1")
"inactive"
>>> reported("CC(C)(C)OOC(C)(C)C")
"inactive"

----------
measurementNotes: A CellTox Green Cytotoxicity Assay to monitor cytotoxicity in HepG2 cells - 32 hour (AID 1224883); also: nearly all actives have a fitted effect of over 50% in size
experimentalSetup: CellTox Green fluorescence; series mostly up to 76.8 µM
Results filed as inconclusive are left out. The source made the active and inactive calls. Calls come from the whole dose curve; as a rule, active = well fitted activation curve with a large enough effect in the repeat runs; inconclusive = weak or mixed curves; inactive = flat fitted curve, though single readings scatter.
observationType: outcome

>>> reported("Nc1c(Cl)c(Cl)nc(C(=O)O)c1Cl")
"inactive"
>>> reported("C#CCN(C)[C@H](C)Cc1ccccc1")
"inactive"
>>> reported("NCCc1ccc(O)cc1")
"inactive"
>>> reported("O=S(=O)(c1ccc(Cl)cc1)c1cc(Cl)c(Cl)cc1Cl")
"inactive"
>>> reported("O=[N+]([O-])c1ccccc1")
"inactive"
>>> reported("COCCl")
"inactive"
>>> reported("CC(=O)C=C(C)C")
"inactive"
>>> reported("Nc1ccc(Br)cc1")
"inactive"

----------
system: Cytochrome P450 2D6 (Homo sapiens)
measurementNotes: Cytochrome P450 Family 2 Subfamily D Member 6 (CYP2D6) small molecule antagonists: luciferase reporter qHTS assay (AID 1671196); also: nearly all actives have a fitted effect of over 50% in size
experimentalSetup: P450-Glo CYP2D6 enzyme assay, luciferin luminescence, 1 h; series mostly up to 115 µM
Excerpt: U.S. Tox21 Program National Center for Advancing Translational Sciences [NCATS] U.S. Environmental Protection Agency [EPA] National Institutes of Environmental Health Sciences [NIEHS] National Toxicology Program [NTP] U.S. Food and Drug Administration [FDA] […] The luciferin products formed are detected with a luciferin detection reagent, and the amount of light produced is proportional to CYP activity. […]
Results filed as inconclusive are left out. The source made the active and inactive calls. Calls follow the shape of the dose curve; as a rule, active = well fitted inhibition curve with a large enough effect in the repeat runs; inconclusive = weak or mixed curves; inactive = no such curve, though single readings can be large or run the other way.
Possible outcomes: Y = active, N = inactive

>>> classassignment("O=NN1CCCC1")
"N"
>>> classassignment("CC(C)OC(=O)Nc1cccc(Cl)c1")
"N"
>>> classassignment("COC(=O)NS(=O)(=O)c1ccc(N)cc1")
"N"
>>> classassignment("CC(Oc1ccc(Cl)cc1Cl)C(=O)O (centres undefined)")
"N"
>>> classassignment("CC(C)NC(=O)N1CC(=O)N(c2cc(Cl)cc(Cl)c2)C1=O")
"N"
>>> classassignment("O=S(=O)(c1ccc(Cl)cc1)c1cc(Cl)c(Cl)cc1Cl")
"N"
>>> classassignment("CCOC(=O)c1ccccc1C(=O)OCC")
"N"
>>> classassignment("Clc1ccccc1Cl")
"N"
>>> classassignment("OC(O)C(Cl)(Cl)Cl")
"N"
>>> classassignment("CCC12COCN1COC2")
"N"
>>> classassignment("CCC[CH2][Sn]([Cl])([Cl])[Cl]")
"N"
>>> classassignment("O=C(O)c1ccccn1")
"N"
>>> classassignment("CC(C)N1C(=O)c2ccccc2NS1(=O)=O")
"N"
>>> classassignment("CC(C)=C[C@@H]1[C@@H](C(=O)OCc2coc(Cc3ccccc3)c2)C1(C)C")
"N"
>>> classassignment("CC(C#N)CCC#N (centres undefined)")
"N"
>>> classassignment("c1ccc2c(c1)oc1ccccc12")
"N"
>>> classassignment("c1cc2c3c(cccc3c1)CC2")
"N"
>>> classassignment("CCN(CC)CCO")
"N"
>>> classassignment("CCNc1nc(NC(C)C)nc(SC)n1")
"N"
>>> classassignment("c1ccc2c(c1)Oc1ccccc1O2")
"N"
>>> classassignment("COC(=O)c1ccccc1N")
"N"
>>> classassignment("CCc1cccc(C)c1N(C(=O)CCl)C(C)COC (centres undefined)")
"N"
>>> classassignment("COP(N)(=O)SC (centres undefined)")
"N"
>>> classassignment("O=NN1CCCCCCC1")
"N"
>>> classassignment("CCCCCCCCCl")
"N"
>>> classassignment("OCCN(CCO)CCO")
"N"
>>> classassignment("CC1OC(C)OC(C)O1 (centres undefined)")
"N"
>>> classassignment("C#CC(C)(C)NC(=O)c1cc(Cl)cc(Cl)c1")
"N"
>>> classassignment("CNC(=O)Oc1ccccc1OC(C)C")
"N"
>>> classassignment("CN(C)N=O")
"N"
>>> classassignment("CCCCCOC(=O)c1ccccc1C(=O)OCCCCC")
"N"
>>> classassignment("O=[N+]([O-])c1ccc(Oc2ccc(Cl)cc2Cl)cc1")
"Y"
>>> classassignment("Cc1cccc([N+](=O)[O-])c1")
"N"
>>> classassignment("C1CN2CCN1CC2")
"N"
>>> classassignment("Oc1ccccc1Cl")
"N"
>>> classassignment("[O-][Cl+2]([O-])O")
"N"
>>> classassignment("CON(C)C(=O)Nc1ccc(Cl)c(Cl)c1")
"N"
>>> classassignment("CC(C)C#N")
"N"
>>> classassignment("Nc1ccc(Cc2ccc(N)cc2)cc1")
"N"
>>> classassignment("CC(C)C1(C)N=C(c2nc3ccccc3cc2C(=O)O)NC1=O (centres undefined)")
"N"
>>> classassignment("O=c1n(Cl)c(=O)n(Cl)c(=O)n1Cl")
"N"
>>> classassignment("COCCl")
"N"
>>> classassignment("O=Cc1cccc(Oc2ccccc2)c1")
"N"
>>> classassignment("CCCCN(CC)C(=O)SCCC")
"N"
>>> classassignment("Cc1ccccc1O")
"N"
>>> classassignment("O=c1ccc(=O)[nH][nH]1")
"N"
>>> classassignment("CCCN(CCC)N=O")
"N"
>>> classassignment("CC1C=[C-]C=C1.[C-]#[O+].[C-]#[O+].[C-]#[O+].[Mn]")
"N"
>>> classassignment("O=[N+]([O-])c1ccc([As](=O)(O)O)cc1")
"N"
>>> classassignment("CCC[N+](=O)[O-]")
"N"
>>> classassignment("Cc1ccc([N+](=O)[O-])cc1C")
"N"
>>> classassignment("NCC(O)c1ccc(O)cc1 (centres undefined)")
"N"
>>> classassignment("CCCCCCCCCCCC#N")
"N"
>>> classassignment("CCNc1nc(NC(C)(C)C)nc(SC)n1")
"N"
